B1: glmS ribozyme (parent)
chain: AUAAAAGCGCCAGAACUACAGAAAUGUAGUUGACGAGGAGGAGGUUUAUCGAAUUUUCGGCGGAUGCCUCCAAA

variants of: B1; assay: self-cleavage kobs at 40 uM GlcN6P; higher = faster cleavage; RNA array; settings: with glucosamine-6-phosphate
This sample holds only a part of the variants without activity.
Please go through the items and note down their self-cleavage kobs at 40 uM GlcN6P.

Some solved cases for reference:
AUAAAAGCGCCAGAACUACAGAAAUGUAGUUGACGAGGAGGAGGUUUAUCGAAUCUUCGGCGGAUGCCUCCAAA [U55C] = 0.000797 s⁻¹
AUAAAAGCGCCAGAACUACAGAAAUGUAGUGGACGAGGGGGAGGUUUAUCGAAUUUUCGGCGGGUGCCUCCAAA [U31G A39G A64G] = 0.00023 s⁻¹
AUAAAAGCGCCAGAACUACAGAAAUGUAGUUGACGAGGAGGGGGUCUUUCGAAUUUUCGGCGGAUGCCUCCAAA [A42G U46C A48U] = < 1e-05 s⁻¹

Hi! Can you tell me self-cleavage kobs at 40 uM GlcN6P for each of these variants?
1. AUAAAAGCGCCAGAACUACAGAAAUGUAGUUGACGAGGAGGAGGUUUAUCGAAUUUUCGGCGGAUGGCCCCAAA [C67G U69C]
2. AUAAAAGCGCCAGGACUACAGAAAUGUAGUUGACGAGGAGGAGGGUUAUCGAAUUUUCGGCGGUUGCCUCCAAA [A14G U45G A64U]

Result:
1. 5.09e-05 s⁻¹
2. < 1e-05 s⁻¹
